tested on: RXF 393 renal; assay: NCI tumour cell line growth inhibition, 48 h
readout: GI50

Problem: Give GI50 (RXF 393 renal) of the following compound: "Cc1cc(N(CCNc2ccnc3cc(Cl)ccc23)Cc2ccco2)nc(Cl)n1"
Solution: 1270 nM

Problem: Also need "COc1cc(C2=C(C#Cc3ccccc3)COC2=O)cc(OC)c1OC" , thanks.
Solution: 1350 nM

Problem: // query: "N#Cc1c(N)nc(N2CCOCC2)c(C#N)c1-c1cccnc1"
Solution: > 100000 nM

Problem: Could you do the same for "NC(=O)c1cc(-c2ccc(F)cc2)cc(-c2ccncc2)c1N" , please?
Solution: > 18600 nM

Problem: Then "COc1cc(/C=C/C(=O)c2ccc(NC(=O)CN3CCN(c4cc5c(cc4F)c(=O)c(C(=O)O)cn5C4CC4)CC3)cc2)cc(OC)c1OC" ?
Solution: 273 nM

Problem: And then "Nc1nc(-c2ccccc2)nc(N)c1N=O" , what is it?
Solution: 2070 nM

Problem: Also need "COc1cc2c3c(n(CCCI)c(=O)c2cc1OC)-c1cc2c(cc1C3=O)OCO2" , thanks.
Solution: 6810 nM

###

test system: MOLT-4 leukemia; assay: NCI tumour cell line growth inhibition, 48 h
Where a SMILES comes first, the peptide text is derived from it. The star is where a group is joined. ONb = O=[N+]([O-])c1ccc(CO*)cc1; Boc = CC(C)(C)OC(=O)*
Quick rule: TGI of at least 20 µM means fulfilled, below that means not fulfilled.

Problem: Can O=C(Cc1nccc2c1[nH]c1ccccc12)OC1C#CCSCC#C/C=C\1 (configuration not stated) be said to have TGI at or above 20 µM?
Solution: fulfilled

Problem: Lookup "Nc1nc(-c2ccccc2)nc(N)c1N=O"
Solution: fulfilled

Problem: Also, Cc1ccc(S(=O)(=O)OCC23CCC(CC2)C2CC23)cc1 (configuration not stated) please.
Solution: fulfilled

Problem: Now consider CC(=O)OC(CCC1(C)OC1COc1ccc(CCNC(=O)c2ccccc2)cc1)C(C)(C)OC(C)=O (configuration not stated) and answer again.
Solution: fulfilled

Problem: Now the same for CC1(Cl)CCC2(CC(Br)=CC3OC32C)CC1Br (configuration not stated)
Solution: fulfilled

Problem: Can you handle CC[C@@H](C(=O)[C@@H](C)[C@@H](O)[C@H](C)[C@@H]1O[C@@H]([C@@H](CC)C(=O)N(CC)CC)CC[C@@H]1C)C1O[C@]2(C=CC(=O)[C@]3(CC[C@@](C)([C@H]4CC[C@](O)(CC)[C@H](C)O4)O3)O2)[C@H](C)C[C@@H]1C (some centres not stated) next?
Solution: not fulfilled

Problem: Can you check CC(=C(C(N)=O)C(N)=O)C1C=C(c2cccs2)CC(c2ccc(Cl)cc2)=C1O (configuration not stated) next?
Solution: fulfilled

Problem: And for "O=C1c2ccccc2C(=O)c2c1ccc(C1C(=O)c3ccccc3C1=O)c2-c1c(C2C(=O)c3ccccc3C2=O)ccc2c1C(=O)c1ccccc1C2=O" ?
Solution: fulfilled

Problem: # iterate: CC(C)CC(NC(=O)OC(C)(C)C)C(=O)NC(CCC(=O)OCc1ccc([N+](=O)[O-])cc1)C(=O)OCc1ccc([N+](=O)[O-])cc1 (stereo not drawn) (Boc-Leu-Glu(ONb)-ONb; configuration not given here)
Solution: fulfilled

Problem: What would you report for "COc1cc(O)c(C(=O)/C=C/c2ccc(O)cc2)c(O)c1[C@@H]1C[C@H](CCc2ccc(O)cc2)O[C@H](c2ccc(O)cc2)C1" ?
Solution: not fulfilled

Problem: Follow-up entry: C[C@]1(CO)CCC[C@@]2(C)C1CC[C@H]1CC3C[C@]12CC[C@]3(C)O (some centres not stated)
Solution: fulfilled

Problem: Repeat with "Cc1c2cnccc2c(C)c2c1c1ccccc1n2CCCCCCNCc1ccccc1"
Solution: not fulfilled

Problem: Also "COc1cc2c(cc1C)NC(=O)/C2=C\c1cccc(Oc2ccccc2)c1" ?
Solution: fulfilled

Problem: Again, but for "O=C(O)c1cn2c3c(cc(N4CCN(CCO)CC4)cc3c1=O)SCC2"
Solution: fulfilled

Problem: // query: "NCCCNC1(c2cc3ccccc3s2)CCCCC1"
Solution: not fulfilled

Problem: Try "CCOC(=O)c1c(N2CCCC2)[nH]c(=O)c(C(c2ccco2)c2c(O)c(C(=O)OCC)c(N3CCCC3)[nH]c2=O)c1O" next.
Solution: fulfilled

Problem: Now try "O=C(Cn1ccnc1[N+](=O)[O-])c1ccc(F)cc1" .
Solution: fulfilled
